Read-out: Thyroid Hormone Responsive (THRSP), THRSP (gene 7069)
TEST_NAME: LTEA_HepaRG_THRSP: Life Technologies and Expression Analysis (LTEA) Assay for Thyroid Hormone Responsive (THRSP) using HepaRG (AID 2283536)
CONDITION_INFO: mRNA level, 48 h; actives raise or lower the signal
Active and inactive are the calls of the source. Rule for the calls: active = hit-call score of the fitted dose curve at least 0.9, where 1 is the maximum; inactive = score below 0.9.
Respond with a class label; see active, inactive

Worked examples, 5 compounds total:
                                   compound     label
0  C[C@]12CC[C@@H]3c4ccc(O)cc4C[C@@H](CCCCCCCCCS(=O)CCCC(F)(F)C(F)(F)F)[C@H]3[C@@H]1CC[C@@H]2O (stereo not given in full)    active
1                      CSC(=O)c1cccc2nnsc12  inactive
2                            O=C(O)c1ccccc1  inactive
3                c1ccc2[nH]c(-c3cscn3)nc2c1  inactive
4  CCC(C)OC(=O)N1CCCCC1CCO (stereo not given)  inactive

input: Outcome logged for CC(C)CCCCCCc1ccc(O)cc1 in this assay:
output: inactive

input: Outcome logged for CCN(Cc1c(F)cccc1Cl)c1c([N+](=O)[O-])cc(C(F)(F)F)cc1[N+](=O)[O-] in this assay:
output: active

input: Outcome logged for CC(=O)S[C@@H]1CC2=CC(=O)CC[C@]2(C)[C@H]2CC[C@@]3(C)[C@@H](CC[C@@]34CCC(=O)O4)[C@H]12 in this assay:
output: active

input: Outcome logged for CCCN(CCC)C(=O)SCC in this assay:
output: inactive

input: Outcome logged for CC(C)(C)[C@@H](O)[C@@H](Cc1ccc(Cl)cc1)n1cncn1 in this assay:
output: active

Ref: PubChem BioAssay (EPA / NIEHS)
